Each recorded value in this set is attributed to patent US20140241984A1.

targetOfAssay: α-synuclein fibrils (human), P37840
measurementDescription: inhibition ELISA; fibrils against monomers
studyConditions: remark: other sources report otherwise
propertyMeasured: Fold Affinity to Fibrils (fold)

- Syn-O1 (antibody, IgG2b, V domains shown) VH: EVQLVESGGGLVQPKGSLKLSCAASGFTFNTYAMHWVRQAPGKGLEWVARIRSKSSNYATYYADSVKDRFTISRDDSQSMLYLQMNNLKTEDTAMYYCVRPLKWYFDVWGTGTTVTVSS VL: QIVLTQSPAILSASPGEKVTMTCSASSTVNYMHWYQQKSGTSPKIWIYDTSKLASGVPARFSGSGSWTSYSLTISSMEAEDAATYYCQQWNSNPPTFGAGTKLELK: 12700
- Syn-O2 (antibody, IgG1, V domains shown) VH: EVQLVESGGGLVQPKGSLKLSCAASGFTFNTYAMHWVRQAPGKGLEWVARIRSKSSNYATYYADSVKDRFTISRDDSQSMLYLQMNNLKTEDTAMYYCVRPLKWYFDVWGTGTTVTVSS VL: QIVLTQSPAILSASPGEKVTMTCSASSTVNYMHWYQQKSGTSPKIWIYDTSKLASGVPARFSGSGSWTSYSLTISSMEAEDAATYYCQQWNSNPPTFGAGTKLELK: 27300
- Syn-O3 (antibody, IgG1, V domains shown) VH: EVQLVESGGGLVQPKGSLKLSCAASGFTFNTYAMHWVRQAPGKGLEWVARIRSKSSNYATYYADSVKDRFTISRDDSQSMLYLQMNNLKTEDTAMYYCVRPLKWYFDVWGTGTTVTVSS VL: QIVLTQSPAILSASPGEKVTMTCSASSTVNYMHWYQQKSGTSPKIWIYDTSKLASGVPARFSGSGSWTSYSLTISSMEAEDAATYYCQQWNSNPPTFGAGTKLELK: 11100
- Syn-O4 (antibody, IgG1, V domains shown) VH: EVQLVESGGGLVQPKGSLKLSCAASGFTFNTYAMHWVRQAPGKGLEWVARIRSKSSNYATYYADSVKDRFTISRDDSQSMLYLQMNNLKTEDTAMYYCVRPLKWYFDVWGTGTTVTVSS VL: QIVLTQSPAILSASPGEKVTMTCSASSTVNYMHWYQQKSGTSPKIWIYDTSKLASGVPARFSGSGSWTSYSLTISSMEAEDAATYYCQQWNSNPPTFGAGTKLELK: 6930
